- Assay Summary: Partition / distribution coefficient octanol-water (Sirius T3)
- Type: physicochemical
- Stated Conditions: octanol/water, pH 4

{"Entry Smiles": "Cc1ccc2c(Nc3cccc(Cl)c3F)nccc2c1NC(=O)c1csc2c(N)ncnc12", "logD": 4.26}

###

- Assay Summary: Solubility of bis-hydrochloride Form I by HPLC test and observation test
- Type: physicochemical
- Stated Conditions: thermodynamic from solid, Water, read-out: Solubility
- Procedure: Solubility was measured by HPLC according to KP, USP and EP general chapters. […] The results of solubility were same between HPLC test and observation test.

{"Entry Smiles": "Cc1ccc2c(Nc3cccc(Cl)c3F)nccc2c1NC(=O)c1csc2c(N)ncnc12", "solubility": "1.5 µg/mL"}
